// provenance: PubChem BioAssay

Each entry below lists one item and its recorded composite z-score value.
experiment: small-molecule microarray binders of probe aCHRDL2, primary screen, biochemical, biotinylated probe, 635/667 nm fluorescence (AID 1100); conditions: higher = more signal

COMPOUND: C=CCNC(=O)[C@H]1[C@@H]2C(=O)O[C@@H](c3ccccc3)[C@@H](c3ccccc3)N2[C@@H](c2ccc(O)cc2)[C@]12C(=O)N(C(=O)OCCOC)c1ccc(C#Cc3ccc(OC)cc3)cc12
composite z-score: 0.478
--
COMPOUND: COCCOC(=O)N1C(=O)[C@@]2(c3cc(C#CCC(C(=O)OC)C(=O)OC)ccc31)[C@H](C(=O)N1CCc3cc(OC)c(OC)cc3C1)[C@H]1C(=O)O[C@H](c3ccccc3)[C@H](c3ccccc3)N1[C@@H]2c1ccccc1OCCO
composite z-score: -0.162
--
COMPOUND: CN1C(=O)C2C=CC(C(O)c3ccc([N+](=O)[O-])cc3)N(Nc3ccccc3)C2C1=O (centres undefined)
composite z-score: 0.998

Input C=CC[C@]1(C(N)=O)N=C(c2ccc(OCCCO)cc2)O[C@H]1c1ccccc1N=[N+]=[N-] . Output composite z-score: 1.26

Input COC(=O)[C@@]1(Cc2ccc(F)cc2)[C@H]2c3cc(C(=O)N(C)C)n(Cc4cccc5ccccc45)c3C[C@H]2CN1C(=O)c1ccccc1 . Output composite z-score: 1.04

Input COCCOC(=O)N1C(=O)[C@@]2(c3cc(C#CCC(C(=O)OC)C(=O)OC)ccc31)[C@H](c1ccc(O)cc1)N1[C@H](c3ccccc3)[C@H](c3ccccc3)OC(=O)[C@H]1[C@@H]2C(=O)N1CCc2cc(OC)c(OC)cc2C1 . Output composite z-score: 0.131

* * *

biological target: E3 ubiquitin-protein ligase XIAP (Homo sapiens); assay: XIAP binders, primary screen, biophysical, small-molecule microarray, fluorescence 635 nm (AID 1181); conditions: small-molecule microarray binding, higher = more signal;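 note: score merges 667 nm emission and signal to noise over triplicate slides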
Classify as follows. Reported composite z-score greater than or equal to -0.04: Condition met. Reported composite z-score below: Condition not met.

Some solved entries appear below for comparison.
COMPOUND: CO[C@H]1O[C@H](CO)[C@@H](OC(=O)Nc2cccc(F)c2)[C@H](OC(=O)c2cc3ccccc3[nH]2)[C@H]1OC(=O)c1cc2ccccc2[nH]1
ASSIGNED LABEL: Condition met
--
COMPOUND: C=C(C(=O)CC[C@@H](OC(=O)c1cccnc1)c1cccc(OCCO)c1)C(C)C
ASSIGNED LABEL: Condition met
--
COMPOUND: O=C1O[C@H](c2ccccc2)[C@H](c2ccccc2)N2[C@H]1[C@@H](C(=O)Nc1nc3ccccc3s1)[C@]1(C(=O)Nc3ccccc31)[C@H]2c1ccccc1OCCO
ASSIGNED LABEL: Condition not met
--
COMPOUND: CC1C2C(CCCO)=CC(C3C(=O)N(C(N)=O)C(=O)C23)N1Cc1cccc(OC(F)(F)F)c1 (stereo unspecified)
ASSIGNED LABEL: Condition not met

I'd appreciate it if you could say whether C=C(COC)C(=O)CC[C@H](OC(C)=O)c1ccccc1OCCO has composite z-score at least equal to -0.04.
Condition met

I'd appreciate it if you could say whether COc1ccc([Si](C)(C)[C@H]2[C@H](CC(=O)N(CCO)Cc3ccccc3)O[C@@]3(C(=O)N(Cc4cccc(N5CCCCC5=O)c4)c4ccccc43)[C@@H]2C)cc1 has composite z-score at least equal to -0.04.
Condition not met

I'd appreciate it if you could say whether CCCCN1CC=CC23O[C@@H]4C=CCCOC(=O)C4[C@H]2C(=O)N(CCO)[C@@H]3C1=O (stereo partly specified) has composite z-score at least equal to -0.04.
Condition not met

I'd appreciate it if you could say whether [N-]=[N+]=NCc1ccccc1C[C@]1(C(=O)N2CCCCC2)COC(c2ccc(OCCCO)cc2)=N1 has composite z-score at least equal to -0.04.
Condition not met

I'd appreciate it if you could say whether COc1ccc([Si](C)(C)[C@H]2[C@H](CC(=O)N3CCC[C@H]3CO)O[C@@]3(C(=O)N(C)c4c(Br)cc(C)cc43)[C@@H]2C)cc1 has composite z-score at least equal to -0.04.
Condition met

I'd appreciate it if you could say whether COC(=O)[C@@]1(Cc2ccc(F)cc2)[C@H]2c3cc(C(=O)N(C)C)n(Cc4ccsc4Br)c3C[C@H]2CN1C(=O)c1ccccc1 has composite z-score at least equal to -0.04.
Condition met

I'd appreciate it if you could say whether C=C(C(=O)CC[C@@H](OC(=O)c1ccccc1-c1ccccc1C(=O)O)c1cccc(OCCO)c1)C(C)C has composite z-score at least equal to -0.04.
Condition met

I'd appreciate it if you could say whether C=C1C(=O)C=C2CN(C(=O)c3ccccc3)[C@@](Cc3ccc(F)cc3)(C(=O)OC)[C@@H]12 has composite z-score at least equal to -0.04.
Condition met

I'd appreciate it if you could say whether NCCCCCCNC(=O)[C@@H]1C[C@@H]2C(=O)NCC(=O)N2[C@@H]1c1cccc(OCCO)c1 has composite z-score at least equal to -0.04.
Condition not met

I'd appreciate it if you could say whether C=C[C@H](OC)[C@@H](O)c1ccc(OC)c(O)c1 has composite z-score at least equal to -0.04.
Condition not met

I'd appreciate it if you could say whether [N-]=[N+]=NCc1ccccc1C[C@@]1(C(=O)NCCN2CCOCC2)N=C(c2ccc(OCCCO)cc2)O[C@@H]1c1ccccc1 has composite z-score at least equal to -0.04.
Condition met

* * *

Each entry below lists one item and its recorded composite z-score value.
test: binders of probe aFST on microarray, primary screen, stem cell growth factor project, biochemical, small-molecule microarray, fluorescence 635/667 (AID 1086); conditions: higher = more signal;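 note: score merges 667 nm fluorescence with signal-to-noise of each printed compound spot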
A bare number is all that is needed in reply.

COMPOUND: C=CC[C@]1(C(=O)NCC(O)CO)N=C(c2ccc(OCCCO)cc2)O[C@H]1c1ccccc1CN=[N+]=[N-] (stereo partly specified)
RECORDED NUMBER: 0.267
--
COMPOUND: C=CC[C@]1(C(=O)NCCN2CCOCC2)N=C(c2ccc(OCCCO)cc2)O[C@H]1c1ccccc1
RECORDED NUMBER: 1.18
--
COMPOUND: CC(C)c1ccc(NN2C(C(O)C3=C[C@H]4C[C@@H](C3)C4(C)C)C=CC3C(=O)N(c4ccccc4)C(=O)C32)cc1 (stereo partly specified)
RECORDED NUMBER: 0.907
--
COMPOUND: COC(=O)[C@@]1(Cc2ccc(OC)cc2)[C@@H]2[C@@H](CC(=O)[C@H]2CC(=O)C(=O)N(C)C)CN1C(=O)c1ccccc1
RECORDED NUMBER: 2.67
--
COMPOUND: CCOC(=O)C[C@H]1[C@H](OC(=O)c2ccccc2-c2ccccc2)[C@@H](NC(=O)CC(C)C)c2cc(OCCCO)ccc2N1C(=O)c1ccccc1
RECORDED NUMBER: 0.324

Input C=C(C(=O)CC[C@@H](OC(=O)c1cccnc1)c1cccc(OCCO)c1)C(C)C . Output composite z-score: 0.267

Input CC1(C)OB(/C=C\CC(OC(=O)c2ccncc2)c2ccccc2)OC1(C)C (stereo unspecified) . Output composite z-score: -0.0939

Input [N-]=[N+]=NCc1ccccc1C[C@@]1(C(N)=O)N=C(c2ccc(OCCCO)cc2)O[C@@H]1c1ccccc1N=[N+]=[N-] . Output composite z-score: 0.926

Input O=C1OCC=C[C@H]2OC34C=CCN(Cn5nnc6ccccc65)C(=O)[C@H]3N(CCO)C(=O)[C@@H]4[C@@H]12 (stereo partly specified) . Output composite z-score: -0.406

Input CCCCN1CC=CC23O[C@@H]4/C=C\CCCOC(=O)C4[C@H]2C(=O)N(CCCCCCO)[C@@H]3C1=O (stereo partly specified) . Output composite z-score: -1.09

Input COC(=O)[C@H]1N=C(c2ccc(OCCCO)cc2)O[C@H]1c1ccccc1N=[N+]=[N-] . Output composite z-score: 1.04

Input [N-]=[N+]=NCc1ccccc1[C@H]1OC(c2ccc(OCCCO)cc2)=N[C@@]1(Cc1ccccc1N=[N+]=[N-])C(=O)N1CCOCC1 . Output composite z-score: 1.07

Input CCCCC(=C=CC[C@@H](O)c1ccc(OCCO)cc1)CCO . Output composite z-score: 0.0121

Input C=C(COC)C(=O)CC[C@@H](OC(=O)c1ccccc1-c1ccccc1C(=O)O)c1ccccc1OCCO . Output composite z-score: -0.168

Input O=C1O[C@H](c2ccccc2)[C@H](c2ccccc2)N2[C@H]1[C@@H](C(=O)Nc1nc3ccccc3s1)[C@]1(C(=O)Nc3ccccc31)[C@H]2c1ccccc1OCCO . Output composite z-score: -0.0275

Input C=CCNC(=O)[C@H]1[C@@H]2C(=O)O[C@@H](c3ccccc3)[C@@H](c3ccccc3)N2[C@@H](c2ccc(O)cc2)[C@]12C(=O)Nc1ccccc12 . Output composite z-score: -0.228
